Every entry's value here was drawn from patent US20060025390A1.

- Test system: serum IgG anti-estrogen antibodies
- Experimental protocol: ELISA binding of IgG estrogen antibodies to different hormones in solid phase
- Parameters: species or system human
- Experimental setup: sample 3; hormone in solid phase; 405 nm
So I've got a bunch of molecules here, and I need their IgG binding (optical density) values.

Give measured IgG binding (optical density) for C[C@]12CCC(=O)C=C1CC[C@@H]1[C@@H]2[C@@H](O)C[C@@]2(C)[C@H]1CC[C@]2(O)C(=O)CO [HC, Hydrocortisone] (serum IgG anti-estrogen antibodies).
0.18

Give measured IgG binding (optical density) for CC(=O)[C@@]1(O)CC[C@H]2[C@@H]3CCC4=CC(=O)CC[C@]4(C)[C@H]3CC[C@@]21C [HP, 17-α-hydroxy-progesterone] (serum IgG anti-estrogen antibodies).
0.52

Give measured IgG binding (optical density) for CC(=O)[C@H]1CC[C@H]2[C@@H]3CCC4=CC(=O)CC[C@]4(C)[C@H]3CC[C@]12C (serum IgG anti-estrogen antibodies).
0.32

Give measured IgG binding (optical density) for CC(C)CCC[C@@H](C)[C@H]1CC[C@H]2[C@@H]3CC=C4C[C@@H](O)CC[C@]4(C)[C@H]3CC[C@]12C (serum IgG anti-estrogen antibodies).
0.15

----------
So I've got a bunch of compounds here, and I need their IgM binding (optical density) values.
- Tested on: serum IgM anti-17-α-hydroxyprogesterone antibodies
- Experimental protocol: ELISA binding of IgM 17-α-hydroxyprogesterone antibodies to different hormones in solid phase
- Parameters: species or system human
- Experimental setup: sample 1; hormone in solid phase; 405 nm
Form rule: numeric answer, no unit written next to it.

Supply reported IgM binding (optical density) belonging to this compound: CC(=O)[C@@]1(O)CC[C@H]2[C@@H]3CCC4=CC(=O)CC[C@]4(C)[C@H]3CC[C@@]21C [HP, 17-α-hydroxy-progesterone]
1.3

Supply reported IgM binding (optical density) belonging to this compound: CC(=O)[C@H]1CC[C@H]2[C@@H]3CCC4=CC(=O)CC[C@]4(C)[C@H]3CC[C@]12C [Progesterone, progesterone]
0.8

Supply reported IgM binding (optical density) belonging to this compound: C[C@]12CCC(=O)C=C1CC[C@@H]1[C@@H]2[C@@H](O)C[C@@]2(C)[C@H]1CC[C@]2(O)C(=O)CO [HC, Hydrocortisone]
0.47

Supply reported IgM binding (optical density) belonging to this compound: CC(C)CCC[C@@H](C)[C@H]1CC[C@H]2[C@@H]3CC=C4C[C@@H](O)CC[C@]4(C)[C@H]3CC[C@]12C [C, Cholesterol]
0.18

----------
- Test system: serum IgE anti-17-α-hydroxyprogesterone antibodies
- Experimental protocol: ELISA binding of IgE 17-α-hydroxyprogesterone antibodies to different hormones in solid phase
- Design: species or system human
- Experimental setup: sample 3; hormone in solid phase; 405 nm
Reported metric: IgE binding (optical density)
Form rule: numeric answer, no unit written next to it.

Supply reported IgE binding (optical density) belonging to this compound: CC(=O)[C@@]1(O)CC[C@H]2[C@@H]3CCC4=CC(=O)CC[C@]4(C)[C@H]3CC[C@@]21C [HP, 17-α-hydroxy-progesterone]
1.1

Supply reported IgE binding (optical density) belonging to this compound: CC(C)CCC[C@@H](C)[C@H]1CC[C@H]2[C@@H]3CC=C4C[C@@H](O)CC[C@]4(C)[C@H]3CC[C@]12C
0.18

Supply reported IgE binding (optical density) belonging to this compound: CC(=O)[C@H]1CC[C@H]2[C@@H]3CCC4=CC(=O)CC[C@]4(C)[C@H]3CC[C@]12C
0.82

Supply reported IgE binding (optical density) belonging to this compound: C[C@]12CCC(=O)C=C1CC[C@@H]1[C@@H]2[C@@H](O)C[C@@]2(C)[C@H]1CC[C@]2(O)C(=O)CO [HC, Hydrocortisone]
0.68

----------
- Test system: serum IgG anti-17-α-hydroxyprogesterone antibodies
- Experimental protocol: ELISA binding of IgG 17-α-hydroxyprogesterone antibodies to different hormones in solid phase
- Design: species or system human
- Experimental setup: sample 1; hormone in solid phase; 405 nm
So I've got a bunch of molecules here, and I need their IgG binding (optical density) values.
Form rule: numeric answer, no unit written next to it.

Supply reported IgG binding (optical density) belonging to this molecule: CC(=O)[C@H]1CC[C@H]2[C@@H]3CCC4=CC(=O)CC[C@]4(C)[C@H]3CC[C@]12C
1.1

Supply reported IgG binding (optical density) belonging to this molecule: C[C@]12CCC(=O)C=C1CC[C@@H]1[C@@H]2[C@@H](O)C[C@@]2(C)[C@H]1CC[C@]2(O)C(=O)CO [HC, Hydrocortisone]
0.69

Supply reported IgG binding (optical density) belonging to this molecule: CC(C)CCC[C@@H](C)[C@H]1CC[C@H]2[C@@H]3CC=C4C[C@@H](O)CC[C@]4(C)[C@H]3CC[C@]12C
0.21

Supply reported IgG binding (optical density) belonging to this molecule: CC(=O)[C@@]1(O)CC[C@H]2[C@@H]3CCC4=CC(=O)CC[C@]4(C)[C@H]3CC[C@@]21C [HP, 17-α-hydroxy-progesterone]
1.6

----------
- System: serum IgE anti-17-α-hydroxyprogesterone antibodies
- Experimental protocol: ELISA binding of IgE 17-α-hydroxyprogesterone antibodies to different hormones in solid phase
- Parameters: species or system human
- Experimental setup: sample 2; hormone in solid phase; 405 nm
Reported metric: IgE binding (optical density)
Form rule: numeric answer, no unit written next to it.

Supply reported IgE binding (optical density) belonging to this compound: CC(=O)[C@@]1(O)CC[C@H]2[C@@H]3CCC4=CC(=O)CC[C@]4(C)[C@H]3CC[C@@]21C [HP, 17-α-hydroxy-progesterone]
2.4

Supply reported IgE binding (optical density) belonging to this compound: CC(=O)[C@H]1CC[C@H]2[C@@H]3CCC4=CC(=O)CC[C@]4(C)[C@H]3CC[C@]12C
1.7

Supply reported IgE binding (optical density) belonging to this compound: CC(C)CCC[C@@H](C)[C@H]1CC[C@H]2[C@@H]3CC=C4C[C@@H](O)CC[C@]4(C)[C@H]3CC[C@]12C
0.23

Supply reported IgE binding (optical density) belonging to this compound: C[C@]12CCC(=O)C=C1CC[C@@H]1[C@@H]2[C@@H](O)C[C@@]2(C)[C@H]1CC[C@]2(O)C(=O)CO [HC, Hydrocortisone]
1.2

----------
- Test system: serum IgE anti-estrogen antibodies
- Experimental protocol: ELISA binding of IgE estrogen antibodies to different hormones in solid phase
- Set-up: species or system human
- Experimental setup: sample 2; relative to estrogen = 100
So I've got a bunch of molecules here, and I need their IgE % reaction values.
Provide only the numeric value, understood in %.

Supply reported IgE % reaction belonging to this molecule: CC(=O)[C@@]1(O)CC[C@H]2[C@@H]3CCC4=CC(=O)CC[C@]4(C)[C@H]3CC[C@@]21C [HP, 17-α-hydroxy-progesterone]
−43

Supply reported IgE % reaction belonging to this molecule: C[C@]12CCC(=O)C=C1CC[C@@H]1[C@@H]2[C@@H](O)C[C@@]2(C)[C@H]1CC[C@]2(O)C(=O)CO [HC, Hydrocortisone]
−19

Supply reported IgE % reaction belonging to this molecule: CC(C)CCC[C@@H](C)[C@H]1CC[C@H]2[C@@H]3CC=C4C[C@@H](O)CC[C@]4(C)[C@H]3CC[C@]12C
−14

Supply reported IgE % reaction belonging to this molecule: CC(=O)[C@H]1CC[C@H]2[C@@H]3CCC4=CC(=O)CC[C@]4(C)[C@H]3CC[C@]12C
−35

----------
- System: serum IgG anti-17-α-hydroxyprogesterone antibodies
- Experimental protocol: ELISA binding of IgG 17-α-hydroxyprogesterone antibodies to different hormones in solid phase
- Set-up: species or system human
- Experimental setup: sample 1; relative to 17-α-hydroxyprogesterone = 100
- Procedure: The ELISA inhibition method was used to determine specificity and cross-reactivity between different hormones and to ensure the degree of human IgG, IgM and IgE estrogen or progesterone binding to estrogen or progesterone in solid phase. […] After shaking and incubation for 1 hr at room temperature, addition of enzyme labeled anti-human IgG, IgM or IgE, repeat of incubation, washing, and addition of substrate, color development was measured at 405 nm. […]
Reported metric: IgG % reaction
Please answer using a numeric value trailed by its unit.

Give measured IgG % reaction for CC(=O)[C@@]1(O)CC[C@H]2[C@@H]3CCC4=CC(=O)CC[C@]4(C)[C@H]3CC[C@@]21C [HP, 17-α-hydroxy-progesterone] (serum IgG anti-17-α-hydroxyprogesterone antibodies).
−100%

Give measured IgG % reaction for C[C@]12CCC(=O)C=C1CC[C@@H]1[C@@H]2[C@@H](O)C[C@@]2(C)[C@H]1CC[C@]2(O)C(=O)CO [HC, Hydrocortisone] (serum IgG anti-17-α-hydroxyprogesterone antibodies).
−43%

Give measured IgG % reaction for CC(C)CCC[C@@H](C)[C@H]1CC[C@H]2[C@@H]3CC=C4C[C@@H](O)CC[C@]4(C)[C@H]3CC[C@]12C (serum IgG anti-17-α-hydroxyprogesterone antibodies).
−13%

Give measured IgG % reaction for CC(=O)[C@H]1CC[C@H]2[C@@H]3CCC4=CC(=O)CC[C@]4(C)[C@H]3CC[C@]12C (serum IgG anti-17-α-hydroxyprogesterone antibodies).
−69%
